Values compiled from the supplement of paper PMC10266784.

Recorded SGCB cell-surface expression functional score (log10) by entry
B1: library; numbered along this chain (parent)
chain: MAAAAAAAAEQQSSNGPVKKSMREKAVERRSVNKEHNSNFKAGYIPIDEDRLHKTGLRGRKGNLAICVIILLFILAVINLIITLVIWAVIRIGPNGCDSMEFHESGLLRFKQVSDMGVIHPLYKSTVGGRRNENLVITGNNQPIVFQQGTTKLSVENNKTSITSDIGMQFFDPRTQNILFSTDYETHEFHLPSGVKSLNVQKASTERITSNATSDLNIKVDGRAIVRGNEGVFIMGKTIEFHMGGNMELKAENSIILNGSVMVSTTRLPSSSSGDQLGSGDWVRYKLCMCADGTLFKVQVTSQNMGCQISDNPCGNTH

- Variants of: B1
- measurement.description: SGCB cell-surface expression functional score (HA stain, bin4 vs bin1, normalised to synonymous) (log10 ratio); higher = more cell-surface SGCB (functional)

Recorded results for 10 variants are shown here.
C97M	-0.29
V200T	-2.11
H36R	-0.04
G293V	-0.73
T205F	-0.9
V200R	-1.87
R174M	0.09
S279H	-0.04
C97Y	-1.89
I82Q	0.28

Dear colleague, I am looking for the recorded SGCB cell-surface expression functional score (log10) of the following variant: Q303V
0.37
